assay: self-splicing fitness, log relative to wild type (ln ratio); higher = more splicing; Tetrahymena group I intron in knt gene, E. coli kanamycin selection, DiMSum; sequences stand for … in CUCUCU…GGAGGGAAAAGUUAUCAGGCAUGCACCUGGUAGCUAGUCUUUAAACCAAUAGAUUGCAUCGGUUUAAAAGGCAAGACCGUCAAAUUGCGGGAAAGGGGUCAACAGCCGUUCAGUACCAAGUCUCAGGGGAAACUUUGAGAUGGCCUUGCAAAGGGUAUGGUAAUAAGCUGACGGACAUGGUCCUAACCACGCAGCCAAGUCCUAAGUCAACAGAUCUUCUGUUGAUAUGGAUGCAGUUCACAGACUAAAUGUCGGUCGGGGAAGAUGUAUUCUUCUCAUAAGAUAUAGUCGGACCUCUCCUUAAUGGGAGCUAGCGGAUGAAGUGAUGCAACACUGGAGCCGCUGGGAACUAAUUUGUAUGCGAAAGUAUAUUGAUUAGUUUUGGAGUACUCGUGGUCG; conditions: 37 °C;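 also: selection with 25 µg/mL kanamycin versus none on LB agar overnight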
# key: entry, value: self-splicing fitness (ln)

ordered_residues: UACUAGCAAUAUUACGAGAG
self-splicing fitness (ln): -2.43
//
ordered_residues: UGACAGCAAUAUUACGCCGG
self-splicing fitness (ln): -0.791
//
ordered_residues: AGUCAGCAAUAUUACGCAGA
self-splicing fitness (ln): -1.45
//
ordered_residues: CCGGAGCAAUAUUACGGGCG
self-splicing fitness (ln): -1
//
ordered_residues: GCACAGCAAUAUUACGUCAU
self-splicing fitness (ln): -0.731
//
ordered_residues: AUUAAGCAAUAUUACGAUUG
self-splicing fitness (ln): -1.86
//
ordered_residues: CACCAGCAAUAUUACGAAUA
self-splicing fitness (ln): -2.62
//
ordered_residues: UUCAAGCAAUAUUACGCUGU
self-splicing fitness (ln): -1.19
//
ordered_residues: UGCAAGCAAUAUUACGACUA
self-splicing fitness (ln): 0.525
//
ordered_residues: UAGGAGCAAUAUUACGGGCU
self-splicing fitness (ln): -1.64
//
ordered_residues: CCAGAGCAAUAUUACGCCGA
self-splicing fitness (ln): -2.65
//
ordered_residues: AUCAAGCAAUAUUACGCGCC
self-splicing fitness (ln): -0.474
//
ordered_residues: CGUCAGCAAUAUUACGUAUU
self-splicing fitness (ln): -1.84
//
ordered_residues: GUGGAGCAAUAUUACGUGCG
self-splicing fitness (ln): -2.9
//
ordered_residues: UUAAAGCAAUAUUACGAGAG
self-splicing fitness (ln): -0.259
//
ordered_residues: UUGGAGCAAUAUUACGCGGU
self-splicing fitness (ln): -2.14
//
ordered_residues: UUACAGCAAUAUUACGCACG
self-splicing fitness (ln): 0.579
//
ordered_residues: GGCUAGCAAUAUUACGUUGU
self-splicing fitness (ln): -0.434
//
ordered_residues: AAAAAGCAAUAUUACGAGUC
self-splicing fitness (ln): -1.28
//
ordered_residues: CUGAAGCAAUAUUACGUUAC
self-splicing fitness (ln): -2.39
//
ordered_residues: CGAAAGCAAUAUUACGCGAA
self-splicing fitness (ln): -2.02
//
ordered_residues: CCCAAGCAAUAUUACGGGUA
self-splicing fitness (ln): -2.81
//
ordered_residues: CGCAAGCAAUAUUACGAUCC
self-splicing fitness (ln): -1.36
//
ordered_residues: GCUUAGCAAUAUUACGACAG
self-splicing fitness (ln): -1.93
//
ordered_residues: AUACAGCAAUAUUACGCUCA
self-splicing fitness (ln): 0.318
//
ordered_residues: GAGAAGCAAUAUUACGUCCC
self-splicing fitness (ln): -0.337
//
ordered_residues: ACCCAGCAAUAUUACGCGUA
self-splicing fitness (ln): -1.08
//
ordered_residues: CAUCAGCAAUAUUACGCGAA
self-splicing fitness (ln): -1.93
//
ordered_residues: AUUGAGCAAUAUUACGUUAG
self-splicing fitness (ln): -2.73
//
ordered_residues: CUACAGCAAUAUUACGUGGC
self-splicing fitness (ln): -2.44
//
ordered_residues: GAUGAGCAAUAUUACGAGAG
self-splicing fitness (ln): -3.01
//
ordered_residues: GCACAGCAAUAUUACGUCCG
self-splicing fitness (ln): -0.201
//
ordered_residues: CGUCAGCAAUAUUACGGAUA
self-splicing fitness (ln): -0.231
//
ordered_residues: UGCGAGCAAUAUUACGUGCC
self-splicing fitness (ln): -2.55
//
ordered_residues: CGGUAGCAAUAUUACGAUCG
self-splicing fitness (ln): -2.27
//
ordered_residues: CUCGAGCAAUAUUACGUCUC
self-splicing fitness (ln): -2.5
//
ordered_residues: AGUGAGCAAUAUUACGUAUU
self-splicing fitness (ln): -2.23
//
ordered_residues: GCCAAGCAAUAUUACGGUCU
self-splicing fitness (ln): -0.79
//
ordered_residues: CCUGAGCAAUAUUACGAGGC
self-splicing fitness (ln): -1.54
//
ordered_residues: UUUCAGCAAUAUUACGCUGA
self-splicing fitness (ln): -2.24
//
ordered_residues: GGGAAGCAAUAUUACGGGAU
self-splicing fitness (ln): -0.0224
//
ordered_residues: GAGUAGCAAUAUUACGACAG
self-splicing fitness (ln): -2.99
//
ordered_residues: AGCAAGCAAUAUUACGGUUU
self-splicing fitness (ln): -0.398
//
ordered_residues: GCGCAGCAAUAUUACGCGAU
self-splicing fitness (ln): -2.14
//
ordered_residues: UAUAAGCAAUAUUACGUACU
self-splicing fitness (ln): -0.993
//
ordered_residues: UAGAAGCAAUAUUACGAUUC
self-splicing fitness (ln): -2.06
//
ordered_residues: ACGAAGCAAUAUUACGAUAG
self-splicing fitness (ln): -1.87
//
ordered_residues: GCUAAGCAAUAUUACGGAAG
self-splicing fitness (ln): -0.648
//
ordered_residues: UCAGAGCAAUAUUACGUCCG
self-splicing fitness (ln): -1.14
//
ordered_residues: AAGAAGCAAUAUUACGCUUA
self-splicing fitness (ln): -0.977
//
ordered_residues: AUCGAGCAAUAUUACGCCUU
self-splicing fitness (ln): -1.72
//
ordered_residues: ACCAAGCAAUAUUACGUUGU
self-splicing fitness (ln): -0.985
//
ordered_residues: AGUAAGCAAUAUUACGGCCC
self-splicing fitness (ln): -0.0183
//
ordered_residues: CUGUAGCAAUAUUACGAGCA
self-splicing fitness (ln): -2.01
//
ordered_residues: CUCGAGCAAUAUUACGAACA
self-splicing fitness (ln): -2.03
//
ordered_residues: AUUGAGCAAUAUUACGAAGG
self-splicing fitness (ln): -2.39
//
ordered_residues: ACCCAGCAAUAUUACGUGGG
self-splicing fitness (ln): -2.3
//
ordered_residues: UCUCAGCAAUAUUACGGACA
self-splicing fitness (ln): -0.369
//
ordered_residues: UCUCAGCAAUAUUACGAUAA
self-splicing fitness (ln): -1.33
//
ordered_residues: GUCCAGCAAUAUUACGAGGA
self-splicing fitness (ln): -2.64
//
ordered_residues: AACAAGCAAUAUUACGCGAC
self-splicing fitness (ln): -1.47
//
ordered_residues: CAGCAGCAAUAUUACGAUCA
self-splicing fitness (ln): -1.88
//
ordered_residues: ACAUAGCAAUAUUACGAGGA
self-splicing fitness (ln): -2.56
//
ordered_residues: CGAUAGCAAUAUUACGGUCG
self-splicing fitness (ln): -3.39
//
ordered_residues: AGUUAGCAAUAUUACGCAGG
self-splicing fitness (ln): -0.586
//
ordered_residues: UUCUAGCAAUAUUACGCGUC
self-splicing fitness (ln): -1.45
//
ordered_residues: ACGCAGCAAUAUUACGCAAC
self-splicing fitness (ln): -1.83
